Molecular target: IGF-1R (Homo sapiens, UniProt P08069)
Construct: purchased Upstate Co. 14-465
Sequence (P08069 959-1367 limits assumed): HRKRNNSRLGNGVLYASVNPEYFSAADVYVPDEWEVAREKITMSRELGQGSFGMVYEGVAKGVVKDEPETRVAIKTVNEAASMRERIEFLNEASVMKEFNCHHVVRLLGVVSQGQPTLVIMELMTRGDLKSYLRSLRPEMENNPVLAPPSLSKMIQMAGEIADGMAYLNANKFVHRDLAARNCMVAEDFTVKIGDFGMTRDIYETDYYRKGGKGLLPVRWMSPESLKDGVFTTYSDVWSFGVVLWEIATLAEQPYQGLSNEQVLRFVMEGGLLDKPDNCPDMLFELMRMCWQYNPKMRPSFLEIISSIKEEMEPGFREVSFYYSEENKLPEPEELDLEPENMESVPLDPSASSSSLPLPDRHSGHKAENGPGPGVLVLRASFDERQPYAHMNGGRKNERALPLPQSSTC
Test: IGF-1R inhibitory activity (kinase reaction, time-resolved fluoroimmunoassay)
Format: biochemical
Conditions: IGF-1R active recombinant enzyme, test compound 10 μmol/L
Measurement Name: inhibition at 10 µM (%)
Numbers only, in %.

Smiles Record	inhibition at 10 µM, %
CCNc1ccc2c(c1)C(=O)N(c1ccccc1/C=C/c1n[nH]c3ccccc13)C2=O	99.1

Your task in this section: give inhibition at 10 µM for each listed record.
1. CN(C)CCN(C)Cc1ccn(-c2ccccc2/C=C/c2n[nH]c3ccccc23)c1
2. Cc1ccsc1C(=O)Nc1cc(CN2CCC(CCC(C)(C)O)CC2)ccc1/C=C/c1n[nH]c2ccccc12
3. O=C1c2cccnc2C(=O)N1c1ccccc1/C=C/c1n[nH]c2ccccc12
4. O=C(Nc1ccccc1/C=C/c1n[nH]c2ccccc12)N1CCOCC1
5. O=C(NCc1cccs1)c1ccccc1/C=C/c1n[nH]c2ccccc12
6. Cc1ccsc1C(=O)Nc1cc(CN2CCN(CCCO)CC2)ccc1/C=C/c1n[nH]c2ccccc12
7. COc1ccc(C(=O)Nc2ccccc2/C=C/c2n[nH]c3ccccc23)cc1

Resp:
[99.4, 99.1, 89.8, 98.4, 97.1, 99.5, 98.5]

====

Biological target: IGF-1R (Homo sapiens)
Construct: purchased Upstate Co. 14-465
Assay: IGF-1R inhibitory activity (kinase reaction, time-resolved fluoroimmunoassay)
Assay type: biochemical
Details: IGF-1R active recombinant enzyme, test compound 10 μmol/L
Measurement Name: inhibition at 10 µM (%)
Give bare numbers, in %.

Below: 5 compounds and their reported inhibition at 10 µM.
Compound	inhibition at 10 µM [%]
COCCOc1ccc(C(=O)Nc2ccccc2/C=C/c2n[nH]c3ccccc23)cc1 [Compound 78]	100
COc1c(OCC(=O)N2CCOCC2)ccc(/C=C/c2n[nH]c3ccccc23)c1NC(=O)c1sccc1C [Compound 335]	102
O=S(=O)(Nc1ccccc1/C=C/c1n[nH]c2ccccc12)c1cccs1 [Compound 60]	77.4
C(=C\c1n[nH]c2ccccc12)/c1ccccc1-n1ccc(CN2CCOCC2)c1 [Compound 182]	97.9
COC(=O)c1c[nH]c(-c2ccccc2/C=C/c2n[nH]c3ccccc23)n1 [Compound 195]	100

Batch: inhibition at 10 µM for all items listed.
1. O=C(c1ccc(/C=C/c2n[nH]c3ccccc23)c(N2C(=O)c3ccccc3C2=O)c1)N1CCN(CCO)CC1 [Compound 286]
2. Nc1cccc2c1C(=O)N(c1cc(CN3CCN(CCO)CC3)ccc1/C=C/c1n[nH]c3ccccc13)C2=O [Compound 307]
3. COc1cccc(C(=O)Nc2ccccc2/C=C/c2n[nH]c3ccccc23)c1 [Compound 19]
4. CS(=O)(=O)c1ccc(C(=O)Nc2ccccc2/C=C/c2n[nH]c3ccccc23)cc1 [Compound 215]
5. O=C(Nc1ccccc1/C=C/c1n[nH]c2ccccc12)c1ccc([N+](=O)[O-])o1 [Compound 63]
6. CN(C)CCNCc1ccn(-c2ccccc2/C=C/c2n[nH]c3ccccc23)c1 [Compound 186]
7. COCCOc1ccc(/C=C/c2n[nH]c3ccccc23)c(NC(=O)c2sccc2C)c1 [Compound 275]
8. Cc1ccsc1C(=O)Nc1cc(CN2CCC(S(C)(=O)=O)CC2)ccc1/C=C/c1n[nH]c2ccccc12 [Compound 235]

Resp:
1. 96.1
2. 100
3. 95.3
4. 81.2
5. 99.2
6. 102
7. 98.6
8. 98.3
